System: SNB-19 CNS
Experiment: NCI tumour cell line growth inhibition, 48 h; in the data active = GI50 below about 0.43 µM; inactive = the rest
Can you answer with just one of these options? active, inactive

Call for entry CC(=O)Oc1cc(C)ccc1[C@]1(C)CC[C@H](C)/C1=C\Br :
inactive

How was COc1cc(OC2OC(C)C(O)C(O)C2O)cc2oc(-c3ccc(O)cc3)c(CC=C(C)C)c(=O)c12 (stereo not drawn) classified in this test?
inactive

Which outcome was entered for the compound COc1cc(-c2nc3ccc(C)cc3[nH]2)ccc1OCC(=O)N=Nc1c(O)[nH]c2ccccc12 in this test?
inactive

Which outcome did this test record for the compound O=C(Oc1ccc(O)c2c(=O)n3c(cc12)[nH]c1ccccc13)c1ccccc1 ?
inactive

Any idea what this test logged for COc1cc2c(cc1C)NC(=O)/C2=C\c1cc(OC)c(OC)c(OC)c1 ?
inactive

How was Cc1cc(/C=C2\SC(=Nc3ccccc3)N(C3CCCC3)C2=O)c(C)n1-c1ccc(Cl)cc1 classified in this test?
inactive
